# melting point listing for each entry below

[
  {
    "compound": "CCCOC(=O)Cc1cc(O)c(C)cc1O",
    "melting point, °C": 101
  },
  {
    "compound": "CC(CC(=O)c1ccc2c(c1)C(C)(C)CCC2(C)C)C(=O)O (stereo not given)",
    "melting point, °C": 165
  },
  {
    "compound": "CC(=NO)c1ccc2c(c1O)OC(CO)CO2 (stereo not given)",
    "melting point, °C": 162
  },
  {
    "compound": "Fc1cc(F)c(F)c(-c2c(Cl)nc3ncnn3c2Cl)c1",
    "melting point, °C": 191
  },
  {
    "compound": "O=C1CCC(=O)N1CCS",
    "melting point, °C": 45
  }
]

###

Overview of recorded melting point for various compounds

[
  {
    "compound": "COc1ccc(Cl)cc1C(=O)NCCc1ccc(-c2ccc(F)cc2)c(S(N)(=O)=O)c1",
    "melting point": "195 °C"
  },
  {
    "compound": "CCC(=O)NS(=O)(=O)c1cccc(-c2cc(-c3nc(-c4ccc(C(F)(F)F)nc4)cc(C(F)(F)F)n3)ccn2)c1",
    "melting point": "242 °C"
  },
  {
    "compound": "O=S(CCl)c1ncc(Cl)cn1 (stereo unspecified)",
    "melting point": "90 °C"
  },
  {
    "compound": "CC(=O)Nc1c(C(=O)c2ccccc2)[nH]c2cccc(Cl)c12",
    "melting point": "221 to 222 °C"
  },
  {
    "compound": "CCCCCCOc1cc(CC#N)c(OCCCCCC)cc1CC#N",
    "melting point": "96 to 97 °C"
  },
  {
    "compound": "Cc1c(C2(c3ccccc3)CCC(c3ccccc3)(N(C)C)CC2)[nH]c2ccccc12 (stereo unspecified)",
    "melting point": "193 to 207 °C"
  },
  {
    "compound": "COc1cccc(S(=O)c2cccc(F)c2C#N)c1 (stereo unspecified)",
    "melting point": "103 to 111 °C"
  },
  {
    "compound": "COc1ccc(C(O)c2ccc3cc(OC)ccc3c2)c(F)c1 (stereo unspecified)",
    "melting point": "68 to 69 °C"
  },
  {
    "compound": "c1cc(C2CC(c3ccncn3)CC(c3ccncn3)C2)ncn1 (stereo unspecified)",
    "melting point": "126 to 128 °C"
  },
  {
    "compound": "CCC(=O)Nc1c(C#N)cnn1-c1c(Cl)cc(SC(F)(F)F)cc1Cl",
    "melting point": "153 to 156 °C"
  },
  {
    "compound": "COc1nc2cc(Cl)c(Cl)c(CSC)c2nc1OC",
    "melting point": "143 to 145 °C"
  },
  {
    "compound": "CN(C)C(=O)Nc1ccc(Oc2ccc3c(c2)OC(C)(C)CC3)cc1",
    "melting point": "137 to 138 °C"
  },
  {
    "compound": "CC1NC(=O)NN=C1c1cccc(Cl)c1 (stereo unspecified)",
    "melting point": "206 to 208 °C"
  },
  {
    "compound": "CCOP(=O)(OCC)ON=C1C=CC(=C(C#N)c2ccccc2C)S1",
    "melting point": "90 to 91 °C"
  },
  {
    "compound": "COC(=O)C#CC(=O)c1ccc(C)cc1",
    "melting point": "44 to 47 °C"
  },
  {
    "compound": "O=C1c2cc(Br)ccc2COc2ccc(Br)cc21",
    "melting point": "193 to 194 °C"
  },
  {
    "compound": "Cc1ccn2c(=O)c(C(=O)NC3CCCC3)cnc2c1",
    "melting point": "220 to 222 °C"
  },
  {
    "compound": "O=C(O)CC1(c2ccccc2)CCCC1C(=O)O (stereo unspecified)",
    "melting point": "205 to 208 °C"
  },
  {
    "compound": "CCCNC(C)=C1C(=O)OC(=O)C(C(C)=O)=C1O",
    "melting point": "145 to 148 °C"
  },
  {
    "compound": "O=C1N(C(c2ccccc2)c2ccccc2)c2c(F)cccc2C1(O)c1cc2c(cc1O)OCC2 (stereo unspecified)",
    "melting point": "121 to 122 °C"
  },
  {
    "compound": "C=C[C@@H](C[C@H](O)[C@H](CC1CCCCC1)NC(=O)[C@H](Cc1c[nH]cn1)NC(=O)[C@@H](CC(=O)NN)Cc1ccccc1)C(C)C",
    "melting point": "109 °C"
  }
]

###

The following compounds are listed with their measured melting point values.

[
  {
    "compound": "O=C1C=C(Nc2c(Br)cccc2Br)CCN1",
    "melting point": "240 to 243 °C"
  },
  {
    "compound": "O=C(CCCCCCc1ccccc1)c1c(O)c2cccnc2n(-c2ccccc2)c1=O",
    "melting point": "153 to 154 °C"
  },
  {
    "compound": "CCCOc1ccccc1-c1nc2nc(NC3CC3)ncc2c(=O)[nH]1",
    "melting point": "208 °C"
  },
  {
    "compound": "CC(=O)N1CCc2cc(O)c(C(F)(F)F)cc21",
    "melting point": "244 to 247 °C"
  },
  {
    "compound": "CCOc1cccc(C(COc2ccccc2)n2nc(C(=O)O)c3c2-c2ccc(OCc4cncnc4)cc2CC3)c1 (stereo not given)",
    "melting point": "190 to 192 °C"
  },
  {
    "compound": "CCCc1c(OCCCCCOc2ccccc2CCC(=O)O)ccc2c1OCCC2=O",
    "melting point": "75 to 76 °C"
  },
  {
    "compound": "CCN(CC)CCNc1ccc(C)c2sc3ccc(O)cc3c(=O)c12",
    "melting point": "254 to 255 °C"
  },
  {
    "compound": "CC(Br)C(=O)c1ccccc1NCC(=O)O (stereo not given)",
    "melting point": "144 to 147 °C"
  },
  {
    "compound": "CN(C)Cc1ncc2c(c1O)COC2(c1ccccc1)c1ccc(F)cc1 (stereo not given)",
    "melting point": "184 °C"
  },
  {
    "compound": "CCCCc1c(CNC(=O)OC(C)(C)C)c(CC(C)C)nc2ccc(O)cc12",
    "melting point": "198 to 200 °C"
  }
]

###

property: melting point

[
  {
    "compound": "CS(=O)(=O)N1C[C@@H](P(=O)(c2ccccc2)c2ccccc2)C[C@H]1CO",
    "recorded-result": "138 to 139 °C"
  },
  {
    "compound": "CCCCCCN1C(=O)C(=CC(=O)O)SC1=Nc1ccccc1",
    "recorded-result": "145 to 146 °C"
  },
  {
    "compound": "O=C1Nc2cc(Cl)ccc2OC1CCCBr (stereo unspecified)",
    "recorded-result": "157 to 158 °C"
  },
  {
    "compound": "CCOC(=O)Cn1c(-c2ccccc2)nc2cccnc21",
    "recorded-result": "93 to 95 °C"
  },
  {
    "compound": "Cc1c(N)cc(C)c2c(=O)[nH]ccc12",
    "recorded-result": "242 °C"
  },
  {
    "compound": "CCOC(=O)C1(c2ccc(Cl)cc2)CCN(C(=O)CC(c2ccccc2)(c2ccccc2)c2ccccc2)CC1",
    "recorded-result": "95 to 98 °C"
  },
  {
    "compound": "N#CCCOC(=O)C=C1C=C(c2ccccc2)S(=O)(=O)C(c2ccccc2)=C1",
    "recorded-result": "156 to 157 °C"
  },
  {
    "compound": "CCOC(=O)C(C#N)=C(Nc1ccc(N(CC)CC)cc1)SC",
    "recorded-result": "100 °C"
  },
  {
    "compound": "CC(=O)c1ccc(C)cc1N(C)C=O",
    "recorded-result": "58 to 60 °C"
  },
  {
    "compound": "CCCNC(=O)COC1c2ccccc2C(=O)N1c1ccc2ccc(Cl)nc2n1 (stereo unspecified)",
    "recorded-result": "167 °C"
  },
  {
    "compound": "O=Cc1ccc2nccc(Oc3ccccc3)c2c1",
    "recorded-result": "112 to 115 °C"
  },
  {
    "compound": "CNC(=S)Nc1ccccc1",
    "recorded-result": "113 °C"
  },
  {
    "compound": "CC(=O)CC(=O)Nc1cccc(C(F)(F)F)c1",
    "recorded-result": "109 to 110 °C"
  },
  {
    "compound": "COc1cc(Nc2nccc(-c3cccnc3)n2)ccc1-n1cnc(C)c1",
    "recorded-result": "204 to 206 °C"
  },
  {
    "compound": "CC(=O)c1cn(-c2cc(C)c3[nH]c(=O)ccc3c2)c(C)n1",
    "recorded-result": "306 to 308 °C"
  },
  {
    "compound": "CCCCCCCCCCCCCCCCCCOc1ccccc1NC(=O)CC(=O)C(C)(C)SCC",
    "recorded-result": "60 to 62 °C"
  },
  {
    "compound": "Cc1cccc(C)c1OC(=O)c1ccccc1C(=O)Oc1c(C)cccc1C",
    "recorded-result": "174 to 176 °C"
  },
  {
    "compound": "O=C(O)COc1cccc2c1CCc1sc(SC(c3ccccc3)c3ccccc3)nc1-2",
    "recorded-result": "176 to 179 °C"
  },
  {
    "compound": "CN(C)S(=O)(=O)c1cc(C(=O)O)cc([N+](=O)[O-])c1Oc1ccccc1",
    "recorded-result": "224 to 226 °C"
  },
  {
    "compound": "COc1cc(C#N)c(N=C(C)N2CCc3cc(OC)c(OCc4ccccc4)cc3C2)cc1OC",
    "recorded-result": "72 to 73 °C"
  },
  {
    "compound": "CN(CCSc1ccc(NS(C)(=O)=O)cc1)CCc1ccc(NS(C)(=O)=O)cc1",
    "recorded-result": "160 to 163 °C"
  },
  {
    "compound": "CC(O)c1ccc2nc(NC(=O)c3ccc(C(C)(C)C)cc3)cn2c1 (stereo unspecified)",
    "recorded-result": "249 to 250 °C"
  },
  {
    "compound": "COc1ccc(N2CN(c3ccccc3)C(N)=C3C=NN=C32)cc1",
    "recorded-result": "204 to 206 °C"
  },
  {
    "compound": "CN(C(=O)c1cc2ccccc2s1)c1ccc(N2CCC(O)CC2)c(C#N)c1",
    "recorded-result": "211 to 212 °C"
  },
  {
    "compound": "O=C(O)Cc1ccc(-c2ccc(F)cc2F)cc1",
    "recorded-result": "143 to 145 °C"
  },
  {
    "compound": "N#CC1=C(c2ccsc2)Nc2n[nH]cc2C1c1cccc2nonc12 (stereo unspecified)",
    "recorded-result": "242 °C"
  },
  {
    "compound": "Cn1c(C(F)F)nn(-c2cc(O)c(Cl)cc2Cl)c1=O",
    "recorded-result": "176 to 179 °C"
  },
  {
    "compound": "Cn1cc(-c2cccc(N3CCc4c(cc5n4CCCC5)C3=O)c2CO)cc(Nc2ccc(C3CNC3)cn2)c1=O",
    "recorded-result": "227 to 229 °C"
  },
  {
    "compound": "CCOC(=O)c1ccccc1Nc1ccccc1O",
    "recorded-result": "105 to 106 °C"
  },
  {
    "compound": "Cc1cc(Nc2ccnc(Nc3ccc(S(=O)(=O)N(CCNC(=O)OC(C)(C)C)C4CCN(C(=O)OC(C)(C)C)CC4)cc3)n2)ccc1F",
    "recorded-result": "242 to 244 °C"
  },
  {
    "compound": "CS(=O)(=O)NCCCCn1c(CCO)nc2c(N)nc3cccnc3c21",
    "recorded-result": "194 to 195 °C"
  },
  {
    "compound": "CCC1(C)COP(=O)(Cc2ccc([N+](=O)[O-])cc2)OC1 (stereo unspecified)",
    "recorded-result": "184 to 185 °C"
  },
  {
    "compound": "COC(=O)c1ccc(C(=NO)c2ccc(C(=O)OC)cc2)cc1",
    "recorded-result": "177 to 178 °C"
  },
  {
    "compound": "Cc1oc(-c2ccccc2)nc1COc1ccc(COc2ccc(C(=O)c3ccccc3)c(O)c2)cc1",
    "recorded-result": "160 to 161 °C"
  },
  {
    "compound": "COc1cc(OC)c(-c2cccs2)cc1/C=C/C(=O)c1ccc(S(=O)(=O)Nc2cc[nH]n2)cc1",
    "recorded-result": "142 to 145 °C"
  },
  {
    "compound": "COc1ccc(C(=O)c2c(Cc3ccccc3)oc3ccccc23)cc1",
    "recorded-result": "84 to 85 °C"
  },
  {
    "compound": "CC1(C)OCc2cc(C(O)c3c[nH]cn3)ccc2O1 (stereo unspecified)",
    "recorded-result": "96 °C"
  },
  {
    "compound": "CCOc1ccc(NC(=O)CC(Cc2cccc3ccccc23)C(=O)O)cc1 (stereo unspecified)",
    "recorded-result": "131 to 135 °C"
  },
  {
    "compound": "O=C(O)CCc1cnoc1-c1ccc(Cl)c(Br)c1",
    "recorded-result": "177 to 180 °C"
  },
  {
    "compound": "COc1ccc(OCC#N)c(SCC#N)c1",
    "recorded-result": "53 to 54 °C"
  },
  {
    "compound": "Cc1cc(C(=O)O)cc(Cl)c1O",
    "recorded-result": "242 to 244 °C"
  }
]
